Sourced from PubChem BioAssay (NCATS)

- target.system: Ubiquitin carboxyl-terminal hydrolase 2 (Homo sapiens)
- method.summary: qHTS for Inhibitors of Ubiquitin-specific Protease USP2a Using CHOP2 as the Reporter: K484 Substrate (AID 652173);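 further: cleavage of internally quenched K48 di-ubiquitin substrate measured as rising fluorescence over time; nearly all actives have a fitted effect of over 70% in size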
- settings: USP2 cleavage of DiUb K48 IQF substrate, fluorescence; series mostly up to 57.5 µM
Results filed as inconclusive are left out. The source made the active and inactive calls. The call rests on the fitted dose curve; in most records, active means well fitted inhibition curve with a large enough effect; inconclusive means small, poorly fitted or top-dose-only effect; inactive means flat fitted curve, though single readings scatter.
Outcome codes: active, inactive

compound: COCOC1CCC(C(=O)Nc2ccc([S+](=O)([O-])Nc3nccs3)cc2)CC1 (centres undefined)
cat: inactive
--
compound: O=C(Nc1ccc(S(=O)(=O)Nc2ncc(-c3ccccc3)s2)cc1)c1ccc2ccccc2c1
cat: active
--
compound: Cc1ccc(S(=O)(=O)Nc2ccccc2Nc2nc(-c3ccccc3)cs2)cc1
cat: active
--
compound: Cc1ccc(-c2cc(C(=O)Nc3cccc(S(=O)(=O)Nc4nccs4)c3)c3ccccc3n2)cc1C
cat: active
--
compound: Cc1ccc(S(=O)(=O)Nc2cnccc2C(=O)Nc2nc(-c3cccnc3)cs2)cc1
cat: active
--
compound: O=S(=O)(Nc1nccs1)c1ccc(Nc2nc(-c3ccc(-c4ccccc4)cc3)cs2)cc1
cat: active
--
compound: Cc1ccc(S(=O)(=O)Nc2cnccc2C(=O)Nc2nc(-c3ccc4c(c3)CCCC4)cs2)cc1
cat: active
--
compound: Cc1ccc(-c2cc(C(=O)Nc3ccc([N+](=O)[O-])cc3)c3ccccc3n2)cc1C
cat: active
--
compound: Cc1ccc(-c2cc(C(=O)Nc3ccc(C(N)=O)cc3)c3ccccc3n2)cc1C
cat: active
